- Tested on: SF-539
- PROTOCOL_NOTES: NCI tumour cell line growth inhibition, 48 h
Active and inactive are the calls of the source. Cut-off read from the data, not from the text of the source: active = GI50 up to about 1.1 µM and inactive = higher.
Measured GI50 accompanies every entry in the list below.
MEASURED_PARAMETER: GI50

INSERT INTO results (compound, measured_parameter, result) VALUES
  ('O=C(NCCCn1ccnc1[N+](=O)[O-])C(=O)NCCCn1ccnc1[N+](=O)[O-]', 'GI50', '> 100 µM (inactive)'),
  ('O=C(/C=C/c1ccc([N+](=O)[O-])cc1)c1nc2ccccc2[nH]1', 'GI50', '26.9 µM (inactive)'),
  ('C[C@]12CCC(=O)C=C1CC[C@@H]1[C@@H]2[C@@H](O)C[C@@]2(C)[C@H]1CC[C@]2(O)C(=O)COC(=O)CCC1CCCC1 [HYDROCORTISONE CYPIONATE]', 'GI50', '> 100 µM (inactive)'),
  ('C=CC1(CCC(Br)C(C)(C)Cl)CO1 (stereo not drawn)', 'GI50', '> 10 µM (inactive)'),
  ('Cc1cn([C@@H]2O[C@H](CO[Si](C)(C)C(C)(C)C)[C@]3(O[C@H]3C(=O)NN)[C@H]2O[Si](C)(C)C(C)(C)C)c(=O)[nH]c1=O', 'GI50', '4.75 µM (inactive)'),
  ('C=CC[C@]1(C2=NC(C)(C)CO2)c2ccccc2-c2ccccc2[C@H]1C(C)=O', 'GI50', '10.8 µM (inactive)'),
  ('O=C1N=C2Sc3ccc4ccccc4c3N2C1=O', 'GI50', '18.8 µM (inactive)'),
  ('O=C1[C@H]2ON(c3ccccc3)C(c3ccc([N+](=O)[O-])cc3)[C@H]2C(=O)N1c1ccc(Cc2ccc(N3C(=O)[C@@H]4ON(c5ccccc5)C(c5ccc([N+](=O)[O-])cc5)[C@@H]4C3=O)cc2)cc1 (stereo partly drawn)', 'GI50', '> 100 µM (inactive)');
